Data provenance: patent US20110105436A1

| Compound | melting point |
| --- | --- |
| Cc1cccc(C)c1Nc1nc(-c2ccncc2)cs1 [Compound 137] | 208 to 210 °C |
| Cc1ccc(C(=O)Nc2nc(-c3ccncc3)cs2)cc1 [Compound 101] | 238 to 241 °C |
| CC(C)(C)c1cccc(Nc2nc(-c3ccncc3)cs2)c1 [Compound 11] | 208 to 210 °C |
| c1cc(-c2csc(Nc3ccc4c(c3)OCO4)n2)ccn1 [Compound 59] | 201 to 203 °C |
| Cc1cccc(Nc2nc(-c3ccnc(N4CCOCC4)c3)cs2)c1 [Compound 197] | 190 to 191 °C |
| Cc1cccc(Nc2nc(-c3ccncc3)c(C(=O)NCCN(C)C)s2)c1 [Compound 93] | 189 to 191 °C |
| Fc1cccc(F)c1Nc1nc(-c2ccncc2)cs1 [Compound 139] | 209 to 211 °C |

----------
Here, each record is paired with measured Ratio data.
- Tested on: RCC4/VHL cells
- Test Details: XTT assay, RCC4/VHL versus RCC4 cells (selectivity ratio)
- Format: cell-based
- Study Conditions: Table 1; selectivity ratio, IC50 in RCC4/VHL cells/IC50 in RCC4 cells
Measurement Name: Ratio

| Molecule | Measurement Name | Recorded Value |
| --- | --- | --- |
| Clc1ccccc1Nc1nc(-c2ccncc2)cs1 | Ratio | >1.4 |
| Fc1ccccc1Nc1nc(-c2ccncc2)cs1 | Ratio | >2.8 |
| COc1ccccc1Nc1nc(-c2ccncc2)cs1 | Ratio | >1.2 |
| Clc1ccc(Nc2nc(-c3ccncc3)cs2)cc1Cl | Ratio | >3 |
| Fc1ccc(Nc2nc(-c3ccncc3)cs2)cc1 | Ratio | >7 |
| c1ccc(Nc2nc(-c3ccncc3)cs2)cc1 | Ratio | >10 |
| Oc1ccccc1Nc1nc(-c2ccncc2)cs1 | Ratio | >3.1 |
| Cc1cccc(Nc2nc(-c3ccncc3)c(C(=O)N(C)C)s2)c1 | Ratio | >2.5 |
